B1: TPR t1 (parent)
chain: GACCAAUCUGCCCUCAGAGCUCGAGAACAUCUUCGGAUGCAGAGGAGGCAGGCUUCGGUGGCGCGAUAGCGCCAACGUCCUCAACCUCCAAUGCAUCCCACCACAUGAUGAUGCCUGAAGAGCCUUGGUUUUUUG

Variants of: B1
Experiment: polymerase ribozyme fitness, log enrichment relative to wild type (log ratio); higher = more active; in vitro selection for triplet polymerase activity
Quick rule: polymerase ribozyme fitness (log ratio) of at least -2 means criterion met, below that means criterion not met.

sequence_record="GACCAAUCUGCCCUCAGAGCUCGAGAACAUCUUCGGAUGCAGAGGAGGCAGGCUUCGGUGGCGCGAUAGCGCCAACGUCCUCAACCUCCAAUCCAUCCCACCACUUGAUGAUGGCUGAGGAGCCUUGGUUUUUUG [G93C A105U C114G A119G]" assigned_class="criterion not met"
sequence_record="GACCAAUCUGCCCUCAGAGCUCGAGAACAUCUUCGGAUGCAGAGGAGGCAGGCUUCGGUGGAGCGAUAGCGCCAACGUCCUCAACCUCCAAUGCUUCCCACCACAUGAUGAUGCCUGAAGAGCCUUGGUUUUUUG [C62A A95U]" assigned_class="criterion met"
sequence_record="GACCAAUCUGCCCUCAGAGCUCGAGAACAUCGUCGGAUGCAGAGGAGGCAGGCUUCGGUGGCGCGAUAGCGCCAACGUCCUCAACCUCCAAUGCAUCCCACCACAUGAUGAUGCCUGAUGAGCCUUGGUUUUUUG [U32G A119U]" assigned_class="criterion not met"

Decide: polymerase ribozyme fitness (log ratio) of GACUAAUCUGCCCUCAGAGCUCGAGAACAUCUUCGGAUGCAGAGGAGGCAGGCUUCGGUGGCACGAUAGCGCCAACGUCCUCAACCUCCAAUGCAUCCCACCACAUGAUGAUGCCUGAAGAGCCUUGGUUUUUUG [C4U G63A] >= -2?
criterion met

Decide: polymerase ribozyme fitness (log ratio) of GACCAAUCUGCCCUCAGAGCUCGAGAACAUCUUCGGAUGCAGAGGAGGCAGGCUUCGGUGGCGCGAUAGCGCCAACGUCCUCAACCUCCAAUGCAUCCCACCCCAUGAUGAUGCCUGAAGAGAAUUGGUUUUUUG [A103C C123A C124A] >= -2?
criterion not met

Decide: polymerase ribozyme fitness (log ratio) of GACCAAUCUGCCCUCAGAGCUCGAGAACAUCUUCGGAUGCAGAGGAGGCAGGCUUCGGUGGCGCGAUAGCGCCAACGUCCUCAACCUCCAAUGCAUCCAACCACAUGAUGAUGCCUGAAGAGCCUUGGUUUCUUG [C99A U132C] >= -2?
criterion not met

Decide: polymerase ribozyme fitness (log ratio) of GACCAAUCUGCCCUCAGAGCUCGAGAACAUCUUCGGAUGCAGAGGAGGCAGGCUUCGGUGGCGCGAUAGCGCCAACGACCUCAACCUCCAAUGCGUCCCACCACAUGAUGAUGCCUGAAGAGCCUUGGUUUUUUG [U78A A95G] >= -2?
criterion met

Decide: polymerase ribozyme fitness (log ratio) of GACCAAUCUGCCCUCAGAGCUCGAGAACAUCUUCGGAUGCAGAGGAGGCAGGUUUCGGUGGCGCGAUAGGGCCAACGUCCUCAACCUCCAAUGCAUCCCACCACAUGAUGAUGCCUGAAGAGCCUUGGUUUUUUG [C53U C70G] >= -2?
criterion not met
